Each entry below carries its recorded composite z-score.
# procedureSummary: small-molecule microarray binders of probe aCHRDL2, primary screen, biochemical, biotinylated probe, 635/667 nm fluorescence (AID 1100)
# appliedConditions: higher = more signal
Please respond with just the number, no unit label.

Here are 4 molecules together with their reported answers.
CC[C@H]1C2=C3C(CC[C@H]4C(OCc5ccc(F)cc5C(F)(F)F)OC[C@](C)([C@@H]34)N(C(=O)OC(C)(C)C)C2)C2COC(=O)OCC21 (some centres not stated); 1.12
C=CCC(OC(C)=O)[C@@H]1[C@@H](N(Cc2cc3ccccc3o2)C(=O)Cc2ccc(F)cc2)c2cc(OCCCO)ccc2N1C(=O)c1ccc2ccccc2n1 (some centres not stated); 0.394
COc1ccc([Si](C)(C)[C@H]2[C@H](CCn3cc(CCO)nn3)O[C@@]3(C(=O)N(Cc4ccc(N5C(=O)c6cccc7cccc5c67)cc4)c4ccccc43)[C@@H]2C)cc1; -0.564
CCOc1cc(C(O)C2C=CC3C(=O)N(C)C(=O)C3N2N2CCCCC2)ccc1O (configuration not stated); 0.101

Q: Provide one value: measured composite z-score of "[N-]=[N+]=Nc1ccccc1[C@@H]1OC(c2ccc(OCCCO)cc2)=N[C@]1(CCS(=O)(=O)c1ccccc1)C(=O)NCCN1CCOCC1"
Result: 1.2

Q: For "CN(C)C(=O)[C@@]1(Cc2ccccc2N=[N+]=[N-])COC(c2ccc(OCCCO)cc2)=N1" , write its composite z-score.
Result: 0.795

Q: Note composite z-score for the molecule shown: "[N-]=[N+]=Nc1ccccc1C[C@@]1(C(=O)O)N=C(c2ccc(OCCCO)cc2)O[C@@H]1c1ccccc1"
Result: 0.945

====

# procedureSummary: splicing luciferase reporter signal modulators, primary screen, spliceosome inhibition project, cell-based, HEK293, splice +/- reporter (AID 1101);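 also: HEK293 cells carrying a splicing-competent luciferase reporter gene; test concentration not given here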
# appliedConditions: luminescence, 24 h, higher = more signal, called active from +8 up or from −8 down
measurementType: z-score
Reply briefly: the number, and no unit.

Take a look at these entries with their results.
CC(C)CN1C(=O)[C@@]2(c3ccc([N+](=O)[O-])cc3)CC(=O)N(CC34CC5CC(CC(C5)C3)C4)[C@@H]2c2ccc(CO)cc21; -0.668
CC(C)C(=C=CC[C@H](O)c1ccc(OCCO)cc1)C[C@H](O)c1cc(Cl)cc(Cl)c1O; -0.492
COCCOC(=O)N1C(=O)[C@@]2(c3cc(C#CC4(O)CCCCCC4)ccc31)[C@H](C(=O)N1CCCCCCC1)[C@H]1C(=O)O[C@H](c3ccccc3)[C@H](c3ccccc3)N1[C@@H]2c1ccc(OCCO)cc1; 0.225
COCCOC(=O)N1C(=O)[C@@]2(c3cc(C#CC4(O)CCCCCC4)ccc31)[C@H](C(N)=O)[C@H]1C(=O)O[C@H](c3ccccc3)[C@H](c3ccccc3)N1[C@@H]2c1ccccc1OCCO; -1.96
COC(=O)C(CC#Cc1ccc2c(c1)[C@]1(C(=O)N2)[C@H](C(=O)O)[C@H]2C(=O)O[C@H](c3ccccc3)[C@H](c3ccccc3)N2[C@@H]1c1ccccc1OCCO)C(=O)OC; 0.78
C=CC[C@@]12N=C(c3ccc(OCCCO)cc3)O[C@@H]1c1ccccc1N(CCS(=O)(=O)c1ccccc1)C2=O; -2.49
O=C1OCCC=C[C@H]2OC34C=CCN(c5ccc(Cl)cc5)C(=O)[C@H]3N(CCCCCO)C(=O)[C@@H]4C12 (some centres undefined); -0.443
C=C[C@H](COC(C)=O)NS(=O)(=O)c1ccc(Br)cc1; 0.485

Q: Quote z-score reported for "[N-]=[N+]=NCc1ccccc1C[C@@]1(C(=O)NCCN2CCOCC2)N=C(c2ccc(OCCCO)cc2)O[C@@H]1c1ccccc1N=[N+]=[N-]" please.
Result: -1.7

Q: Look up and report measured z-score for this entry: "Cc1ccc(S[C@]2(C(=O)NCC(F)(F)F)CC(=O)N(Cc3ccccc3)[C@@H]2c2ccc(CO)cc2)cc1"
Result: -0.676

Q: Please report z-score for the following compound: CC(=O)n1cc(C(O)C2C=CC3C(=O)N(Cc4ccccc4)C(=O)C3N2n2cnnc2)c2ccccc21 (centres undefined)
Result: 0.108
